- tgt: CepR (Burkholderia multivorans, UniProt Q93PF7)
- Sequence (Q93PF7 1-239): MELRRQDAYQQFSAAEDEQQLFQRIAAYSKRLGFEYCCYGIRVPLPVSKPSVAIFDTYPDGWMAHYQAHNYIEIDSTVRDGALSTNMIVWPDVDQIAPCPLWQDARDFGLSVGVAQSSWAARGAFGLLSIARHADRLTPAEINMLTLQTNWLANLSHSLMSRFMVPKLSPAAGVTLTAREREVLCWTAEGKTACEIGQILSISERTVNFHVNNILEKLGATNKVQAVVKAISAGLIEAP
- test.summary: CepR agonism in B. multivorans cepI::lacZ reporter (Bm-reporter)
- Assay type: cell-based
- settings: Table S4, Bm-reporter; screening conc. 100 μM
Mark not satisfied for Act% values under 80%, and satisfied for everything at or above.

Look over these answered cases.
Cc1ccc(CCC(=O)N[C@H]2CCOC2=O)cc1 [Compound E26] = satisfied
COc1ccc(CCC(=O)N[C@H]2CCOC2=O)cc1 [Compound E28] = satisfied
O=C(CCc1ccc(F)cc1)N[C@H]1CCOC1=O [Compound E29] = satisfied
O=C(CCc1ccc(Cl)cc1)N[C@H]1CCOC1=O [Compound E30] = satisfied
O=C(Cc1ccc(F)c(C(F)(F)F)c1)N[C@H]1CCOC1=O [Compound E10] = not satisfied
CC(C)Oc1ccc(C(=O)N[C@H]2CCOC2=O)cc1 [Compound R3] = not satisfied

In the following, a different compound is considered.
API: above_or_equal(metric=Act%, cutoff=80%) for item CSc1ccc(CCC(=O)N[C@H]2CCOC2=O)cc1 [Compound E34]
satisfied

Measured values drawn from paper PMC6748986 for this set.
